Assign GI50 to each entry below.
Tested on: NCI-H522
Method: NCI tumour cell line growth inhibition, 48 h
Active and inactive are the calls of the source. Cut-off read from the data, not from the text of the source: active = GI50 up to about 1.1 µM and inactive = higher.

Cc1ccc(S(=O)(=O)N/N=C2\CC3CC4CCC2C4C3)cc1 (centres undefined): > 100 µM (inactive)
CCN(CC)CCC1(C(=O)OC)SCCc2ccc(C)cc21 (centres undefined): > 100 µM (inactive)
COC(=O)C(=O)OC1(C(C)=O)CC2(c3ccccc3)OC1(c1ccccc1)c1ccccc12 (centres undefined): 17.7 µM (inactive)
CC12CCC(=O)[C@@]1(C)CCCC2O (some centres undefined): > 100 µM (inactive)
Cc1nc2ccccc2c(=O)n1NC(=S)Nc1ccccc1: > 100 µM (inactive)
O=C(CNc1ccc2c(=S)c3ccccc3[nH]c2c1)Nc1ccccc1-c1ccccc1NC(=O)CNc1ccc2c(=S)c3ccccc3[nH]c2c1: 6.38 µM (inactive)
CCc1n[nH]c(=O)n1-c1ccncc1: > 100 µM (inactive)
CCOc1ccc(/N=N/c2ccc3cc(/C(C)=N/NC(=O)/C(C#N)=C\c4ccc(N(CCC#N)CCC#N)cc4)c(=O)oc3c2)cc1: > 10 µM (inactive)

Task item: Entry O=C(C1OC1c1ccc(Br)cc1O)C12CC3CC(CC(C3)C1)C2 (centres undefined) has what GI50?
Reply: 18.8 µM (inactive)
